- Target Or Test System: T1, native human CD30L expressed on Ramos cells (human, UniProt P32971 1-234)
- T1 construct: It is used here for the native protein on human B cell lines; also called huCD30L; Native huCD30L
- T1 sequence: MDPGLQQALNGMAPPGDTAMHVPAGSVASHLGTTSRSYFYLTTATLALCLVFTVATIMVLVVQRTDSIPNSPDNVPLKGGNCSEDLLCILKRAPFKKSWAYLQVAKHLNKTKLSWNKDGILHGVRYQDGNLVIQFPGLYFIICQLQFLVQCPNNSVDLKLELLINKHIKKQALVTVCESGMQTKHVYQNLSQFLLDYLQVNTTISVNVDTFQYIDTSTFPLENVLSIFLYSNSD
- Assay Text: FACS, antibody at 50 ug/mL, inhibition of huCD30.Fc-His binding to Ramos cells
Measured Parameter: % inhibition (%)
Give bare numbers, in %.

Reported % inhibition, binder Antibody D (antibody, V domains shown, also called mAb D) VH: QVQLQESGPGLVKPSETLSLTCTVSGGSISSYSWSWIRQPAGKGLEWIGRTSTSGRNNYNPSLKSRVTMSVDTSKNQFSLKLNSVTAADTAVYYCARDFTIAARRYYYYGMDVWGQGTTVTVSS VL: QSALTQPASVSGSPGQSITISCTGTSSDIGLYNYVSWYQQHPGKAPKLIIYEVINRPSGVSNRFSGSESGNTASLTISGLQAEDEANYYCSSYTSSSTWVFGGGTKLTVL : ____
55
